Conditions: siRNA; also: test system not given here
HELM strings list units from the 5' end as sugar, base in round brackets, then linkage (d deoxyribose, r ribose, m 2'-O-methyl, p phosphodiester). Strings are as the collection lists them, not checked against the first reports. ss, as = sense and antisense strand; [lna] = locked nucleic acid (LNA)
Catalogue of target mRNA knockdown readings, one per entry.
Measurement Type: target mRNA knockdown (%)

RNA1{m(G)p.r(G)p.m(A)p.r(G)p.m(C)p.r(U)p.m(A)p.r(G)p.m(A)p.r(C)p.m(G)p.r(G)p.m(G)p.r(U)p.m(A)p.r(C)p.m(G)p.r(A)p.r(G)p.r(T)p.r(T)}|RNA2{r(C)p.r(U)p.r(C)p.r(G)p.r(U)p.r(A)p.r(C)p.r(C)p.r(C)p.r(G)p.r(U)p.r(C)p.r(U)p.r(A)p.r(G)p.r(C)p.r(U)p.r(C)p.r(C)p.r(T)p.r(T)}$$$RNA1{StrandType:ss}|RNA2{StrandType:as}$; 75
RNA1{r(U)p.r(C)p.r(C)p.r(C)p.r(U)p.r(U)p.r(C)p.m(C)p.r(A)p.r(C)p.r(C)p.r(G)p.r(C)p.m(C)p.r(A)p.m(U)p.r(A)p.r(U)p.r(U)p.r(T)p.r(T)}|RNA2{r(A)p.r(A)p.m(U)p.r(A)p.m(U)p.r(G)p.r(G)p.r(C)p.r(G)p.r(G)p.m(U)p.r(G)p.r(G)p.r(A)p.r(A)p.r(G)p.r(G)p.r(G)p.r(A)p.r(T)p.r(T)}$$$RNA1{StrandType:ss}|RNA2{StrandType:as}$; 47
RNA1{r(C)p.r(U)p.r(U)p.r(A)p.r(C)p.r(G)p.r(C)p.r(U)p.r(G)p.r(A)p.r(G)p.r(U)p.r(A)p.r(C)p.r(U)p.r(U)p.r(C)p.r(G)p.r(A)p.r(T)p.r(T)}|RNA2{r(T)p.r(C)p.r(G)p.r(A)p.r(A)p.r(G)p.r(U)p.r(A)p.r(C)p.r(U)p.r(C)p.r(A)p.r(G)p.r(C)p.r(G)p.r(U)p.r(A)p.[lna](A)p.r(G)p.[lna](T)p.[lna](T)}$$$RNA1{StrandType:ss}|RNA2{StrandType:as}$; 95

* * *

Conditions: siRNA
HELM strings list units from the 5' end as sugar, base in round brackets, then linkage (d deoxyribose, r ribose, m 2'-O-methyl, p phosphodiester). Strings are as the collection lists them, not checked against the first reports. ss, as = sense and antisense strand
Measurement Type: target mRNA knockdown (%)

RNA1{r(G)p.r(A)p.r(G)p.r(G)p.r(A)p.m(U)p.r(G)p.r(G)p.r(A)p.r(U)p.r(U)p.r(C)p.r(G)p.m(A)p.r(C)p.r(U)p.m(U)p.r(A)p.r(G)p.r(T)p.r(T)}|RNA2{r(C)p.m(U)p.r(A)p.r(A)p.m(G)p.r(U)p.r(C)p.r(G)p.r(A)p.r(A)p.r(U)p.r(C)p.m(C)p.r(A)p.r(U)p.r(C)p.r(C)p.r(U)p.r(C)p.r(T)p.r(T)}$$$RNA1{StrandType:ss}|RNA2{StrandType:as}$; 91
RNA1{r(U)p.m(U)p.r(G)p.r(G)p.r(G)p.r(G)p.r(A)p.r(A)p.r(G)p.r(C)p.r(G)p.r(G)p.r(C)p.r(C)p.r(G)p.r(G)p.r(C)p.r(G)p.r(G)p.r(T)p.r(T)}|RNA2{r(C)p.r(C)p.r(G)p.r(C)p.r(C)p.r(G)p.r(G)p.r(C)p.r(C)p.r(G)p.r(C)p.r(U)p.r(U)p.r(C)p.r(C)p.r(C)p.m(C)p.r(A)p.r(A)p.r(T)p.r(T)}$$$RNA1{StrandType:ss}|RNA2{StrandType:as}$; 82
RNA1{r(U)p.m(U)p.r(A)p.r(C)p.r(A)p.r(A)p.r(A)p.r(G)p.r(G)p.r(A)p.r(U)p.r(C)p.r(U)p.r(C)p.r(C)p.r(U)p.r(C)p.r(C)p.r(C)p.r(T)p.r(T)}|RNA2{r(G)p.r(G)p.r(G)p.r(A)p.r(G)p.r(G)p.r(A)p.r(G)p.r(A)p.r(U)p.r(C)p.r(C)p.r(U)p.r(U)p.r(U)p.r(G)p.m(U)p.r(A)p.r(A)p.r(T)p.r(T)}$$$RNA1{StrandType:ss}|RNA2{StrandType:as}$; 69
